The measurements presented in this section are drawn from patent US12636385B2.

target: 0N4R Tau fibrils (Homo sapiens, UniProt P10636); assay: ^3H-THK5117 competition binding to tau fibrils in vitro; conditions: 3 nM [^3H]-THK5117, recombinant 0N4R tau fibrils; average if run more than once
Sequence (P10636 1-383 isoform P10636-6): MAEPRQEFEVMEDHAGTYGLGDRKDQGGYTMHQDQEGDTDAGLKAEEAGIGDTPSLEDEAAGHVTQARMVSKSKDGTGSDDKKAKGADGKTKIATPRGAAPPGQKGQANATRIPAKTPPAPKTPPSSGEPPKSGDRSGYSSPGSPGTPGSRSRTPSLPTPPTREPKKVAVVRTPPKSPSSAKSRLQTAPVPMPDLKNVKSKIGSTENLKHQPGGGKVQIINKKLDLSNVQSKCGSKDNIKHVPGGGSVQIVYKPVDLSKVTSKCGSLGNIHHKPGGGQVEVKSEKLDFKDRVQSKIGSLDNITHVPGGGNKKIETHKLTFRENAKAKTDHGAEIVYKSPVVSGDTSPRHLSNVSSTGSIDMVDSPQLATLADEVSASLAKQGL
Consider the cut-off 9 nM. If the recorded IC50 is strictly smaller, the label is Met; if not, the label is Not met.

>>> category("COc1cnc2[nH]c(-c3ccc(N4CCC(CO)CC4)nc3F)cc2c1")
"Not met"
>>> category("OCCC1CCN(c2ccc(-c3nc4ccccc4o3)cn2)CC1")
"Not met"
>>> category("COc1ccc2nc(-c3ccc(N4CCC(CCO)CC4)nc3)sc2c1")
"Met"
>>> category("OCC1CCN(c2ccc(-c3cc4cccnc4[nH]3)c(F)n2)CC1")
"Not met"
>>> category("NC(=O)C1CCN(c2ccc(-c3cc4cc(O)ccc4[nH]3)c(F)n2)CC1")
"Not met"
>>> category("FCCOCCOCCOC1CCN(c2ncc(-c3cc4ccccc4o3)cn2)CC1")
"Not met"
>>> category("O=C(NCCO)c1ccc2nc(-c3cnc(N4CCC(CCF)CC4)nc3)sc2c1")
"Not met"
>>> category("Oc1ccc2nc(-c3cnc(N4CCC(CCF)CC4)nc3)sc2c1")
"Met"
